Entry source: ChEMBL document CHEMBL1130336

Assignment: determine reported IC50 for the given compounds.
Test system: Vero
Assay: Concentration required to reduce Tacaribe virus-inducted cytopathicity by 50% (Vero cells)
Type: functional, cell-based
Conditions: Chlorocebus sabaeus

compound: O=S(=O)(O)CCSCCCOC[C@H]1O[C@@](COCCCSCCS(=O)(=O)O)(O[C@H]2O[C@H](COCCCSCCS(=O)(=O)O)[C@@H](OCCCSCCS(=O)(=O)O)[C@H](OCCCSCCS(=O)(=O)O)[C@H]2OCCCSCCS(=O)(=O)O)[C@@H](OCCCSCCS(=O)(=O)O)[C@@H]1OCCCSCCS(=O)(=O)O
tested_system: Vero
reading: > 25 µM

compound: O=C(O)CC(SCCCOC[C@H]1O[C@@H](O[C@H]2[C@H](OCCCSC(CC(=O)O)C(=O)O)[C@@H](OCCCSC(CC(=O)O)C(=O)O)[C@@H](OCCCSC(CC(=O)O)C(=O)O)O[C@@H]2COCCCSC(CC(=O)O)C(=O)O)[C@H](OCCCSC(CC(=O)O)C(=O)O)[C@@H](OCCCSC(CC(=O)O)C(=O)O)[C@@H]1OCCCSC(CC(=O)O)C(=O)O)C(=O)O (stereo partly drawn)
tested_system: Vero
reading: > 22 µM

Problem: Which measured IC50 value corresponds to O=C(O)CC(SCCCOC[C@H]1O[C@@H](OCCCSC(CC(=O)O)C(=O)O)[C@H](OCCCSC(CC(=O)O)C(=O)O)[C@@H](OCCCSC(CC(=O)O)C(=O)O)[C@@H]1OCCCSC(CC(=O)O)C(=O)O)C(=O)O (stereo partly drawn) ?
Result: > 37 µM
